test: chemical genetic growth profiling, strain panel (AID 1159580);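 further: tested at 20 µM; growth read once vehicle control cultures reached saturation at 30 °C; 1 = growth at the plate median or of vehicle wells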; settings: S. cerevisiae deletion strains, growth OD, locus YLR221C, strain rsa3
The whole screen tested about 5,500 compounds, of which about 2,000 (36%) were called active. Another 18% or so got no clear call; they are omitted. No stated cut-off is given here; in the data, active means normalized growth mostly below about 0.91 (no sharp cut-off); inconclusive means no clear call, values can overlap the other calls; inactive means mostly above about 0.92. Some of the results follow.
Output constraint: value belongs to Y for active, N for inactive

IN: What was the test verdict on `O=C1C=CC(=C(c2ccc(O)cc2)c2ccc(O)cc2)C=C1` ?
OUT: N

IN: What was the test verdict on `CN(C)c1ccc(C(=C2C=CC(=[N+](C)C)C=C2)c2ccc(N(C)C)cc2)cc1` ?
OUT: Y

IN: What was the test verdict on `CS(=O)(=O)c1ccc(C2=C(c3ccccc3)C(=O)OC2)cc1` ?
OUT: N

IN: What was the test verdict on C[C@]12CCC(=O)C=C1CCC1C2CC[C@@]2(C)C1CC[C@@H]2O (stereo not given in full) ?
OUT: N

IN: What was the test verdict on CN1CCCN=C1COC(=O)C(O)(c1ccccc1)C1CCCCC1 (stereo not given) ?
OUT: N

IN: What was the test verdict on CCOC(=O)C(=O)C1(C(=O)OCC)Oc2cc(OC)cc(OC)c2C(=O)C1c1ccccc1 (stereo not given) ?
OUT: N

IN: What was the test verdict on `CCCCCCNC(=O)n1cc(F)c(=O)[nH]c1=O` ?
OUT: Y

IN: What was the test verdict on CC1=C(CC(=O)O)c2cc(F)ccc2/C1=C\c1ccc(S(C)=O)cc1 (stereo not given) ?
OUT: N

IN: What was the test verdict on CC(=O)O[C@@H]1C[C@@]2(C)C(CC[C@@H]2C(C)=O)C2CCC3=CC(=O)CC[C@]3(C)C21 (stereo not given in full) ?
OUT: N

IN: What was the test verdict on C=C(C)C1CNC(C(=O)O)C1CC(=O)O (stereo not given) ?
OUT: N

----------
test: chemical genetic growth profiling, strain panel (AID 1159580); conditions: S. cerevisiae deletion strains, growth OD, locus YGL240W, strain doc1, stronger effect = lower value
In all, about 5,500 compounds went through this assay and about 2,000 (36%) were called active. Not shown: some 18% with an inconclusive outcome. The list shows a part of the results.
quantity measured: normalized growth
// no unit, no text: just the number

IN: Sample `CC1=C(/C=C/C(C)=C/C=C/C(C)=C/C=C/C=C(C)/C=C/C=C(C)/C=C/C(=O)[C@]2(C)C[C@@H](O)CC2(C)C)C(C)(C)C[C@H](O)C1` — what was its normalized growth?
OUT: 0.968

IN: Sample `O=C(O)c1cc2ccccc2[nH]1` — what was its normalized growth?
OUT: 1

IN: Sample `O=C(O)c1c2ccccc2cc2ccccc12` — what was its normalized growth?
OUT: 0.964

IN: Sample CC1CC2C3CCC4=CC(=O)C=C[C@]4(C)[C@@]3(F)[C@@H](O)C[C@]2(C)[C@@]1(O)C(=O)CO (stereo not given in full) — what was its normalized growth?
OUT: 1.01

IN: Sample `CCCCCCCCCCCCCCCC(=O)OC/C=C(C)/C=C/C=C(C)/C=C/C1=C(C)CCCC1(C)C` — what was its normalized growth?
OUT: 1.03

----------
test: chemical genetic growth profiling, strain panel (AID 1159580); conditions: S. cerevisiae deletion strains, growth OD, locus YDR195W, strain ref2
About 2,000 (36%) of roughly 5,500 compounds were called active. Roughly 18% stayed inconclusive and do not appear here. Some of the results follow.
Can you tell me normalized growth for the items I'm about to list?
// no unit, no text: just the number

IN: Sample `CC1=C(/C=C/C(C)=C/C=C/C(C)=C/C=C/C=C(C)/C=C/C=C(C)/C=C/C2=C(C)C(=O)CCC2(C)C)C(C)(C)CCC1=O` — what was its normalized growth?
OUT: 0.944

IN: Sample CC(=O)O[C@@H]1C[C@@]2(C)C(CC[C@@H]2C(C)=O)C2CCC3=CC(=O)CC[C@]3(C)C21 (some centres undefined) — what was its normalized growth?
OUT: 1.06

IN: Sample `CN(C)c1ccc(C(=C2C=CC(=[N+](C)C)C=C2)c2ccc(N(C)C)cc2)cc1` — what was its normalized growth?
OUT: 1.06

IN: Sample CC1=C(/C=C/C(C)=C/C=C/C(C)=C/C=C/C=C(C)/C=C/C=C(C)/C=C/C2=C(C)C(=O)C(O)CC2(C)C)C(C)(C)CC(O)C1=O (centres undefined) — what was its normalized growth?
OUT: 1.12

----------
Can you tell me normalized growth for the items I'm about to list?
test: chemical genetic growth profiling, strain panel (AID 1159580);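 further: tested at 20 µM; growth read once vehicle control cultures reached saturation at 30 °C; 1 = growth at the plate median or of vehicle wells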; settings: S. cerevisiae deletion strains, growth OD, locus YEL003W, strain gim4, stronger effect = lower value
In all, about 5,500 compounds went through this assay and about 2,000 (36%) were called active. Another 18% or so got no clear call; they are omitted. This is one part of the list.
// no unit, no text: just the number

IN: Sample `CC1(C)OC(=O)NC1=O` — what was its normalized growth?
OUT: 1

IN: Sample `COc1cc2c(cc1OC)[C@@H]1C(=O)c3ccc4c(c3O[C@@H]1CO2)C=CC(C)(C)O4` — what was its normalized growth?
OUT: 1.01

IN: Sample `CN[C@@H](C)[C@@H](O)c1ccccc1` — what was its normalized growth?
OUT: 0.996

IN: Sample CNC(C)[C@H](O)c1ccccc1 (stereo not given in full) — what was its normalized growth?
OUT: 0.992

IN: Sample CCCCCCCCNC(C)C(O)c1ccc(SC(C)C)cc1 (stereo not given) — what was its normalized growth?
OUT: 0.0594

----------
Can you tell me normalized growth for the items I'm about to list?
assay: chemical genetic growth profiling, strain panel (AID 1159580);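 further: tested at 20 µM; growth read once vehicle control cultures reached saturation at 30 °C; 1 = growth at the plate median or of vehicle wells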; conditions: S. cerevisiae deletion strains, growth OD, locus YLR403W, strain SFP1, stronger effect = lower value
The whole screen tested about 5,500 compounds, of which about 2,000 (36%) were called active. Roughly 18% stayed inconclusive and do not appear here. The list shows a part of the results.
// no unit, no text: just the number

IN: Sample `Cc1cc(C(=O)Nc2ccc(Cl)cc2)nn1C(C)(C)C` — what was its normalized growth?
OUT: 0.956

IN: Sample `Cc1ccc(-c2csc(-c3cccnc3)n2)c(C)c1` — what was its normalized growth?
OUT: 0.809

IN: Sample `Cc1nnsc1C(=O)NNc1ccc(F)cc1F` — what was its normalized growth?
OUT: 0.883

IN: Sample `O=C(CSc1nnnn1-c1ccccc1)c1ccccc1` — what was its normalized growth?
OUT: 0.663

IN: Sample `O=S(=O)(Nc1cccc2nsnc12)c1cc(Cl)sc1Cl` — what was its normalized growth?
OUT: 0.942

IN: Sample `COc1ccc(NNC(=O)c2sc3ccccc3c2Cl)cc1` — what was its normalized growth?
OUT: 0.563

IN: Sample `S=C(Nc1ccc(Cl)cc1Cl)N(c1cccc(Cl)c1)c1nc2ccccc2s1` — what was its normalized growth?
OUT: 0.664

IN: Sample `Cc1nnsc1C(=O)Nc1cc(C(F)(F)F)cc(C(F)(F)F)c1` — what was its normalized growth?
OUT: 0.941

IN: Sample `O=C(NNc1ccccc1F)c1ccno1` — what was its normalized growth?
OUT: 0.934

IN: Sample `Cc1cc(Cl)ccc1NNC(=O)c1snnc1C` — what was its normalized growth?
OUT: 0.887

IN: Sample `Cc1nn(Cc2cccc(C(=O)Nc3ccc(Cl)cc3)c2)c(C)c1Br` — what was its normalized growth?
OUT: 0.99

IN: Sample `Cc1cc(C(=O)NNc2ccc(F)cc2F)no1` — what was its normalized growth?
OUT: 0.934

----------
assay: chemical genetic growth profiling, strain panel (AID 1159580);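 further: tested at 20 µM; growth read once vehicle control cultures reached saturation at 30 °C; 1 = growth at the plate median or of vehicle wells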; details: S. cerevisiae deletion strains, growth OD, locus YNL233W, strain BNI4
Out of some 5,500 compounds screened, about 2,000 (36%) were called active. Another 18% or so got no clear call; they are omitted. No stated cut-off is given here; in the data, active means normalized growth mostly below about 0.91 (no sharp cut-off); inconclusive means no clear call, values can overlap the other calls; inactive means mostly above about 0.92. The list shows a part of the results.
Output constraint: value belongs to active, inactive

IN: What was the test verdict on `O=C(O)c1c2ccccc2cc2ccccc12` ?
OUT: inactive

IN: What was the test verdict on `O=C(O)c1cc2ccccc2[nH]1` ?
OUT: inactive

IN: What was the test verdict on CC(=O)[C@H]1CCC2C3CCC4=CC(=O)CC[C@]4(C)C3CC[C@@]21C (some centres not stated) ?
OUT: inactive

IN: What was the test verdict on `CCOC(=O)C(C)(C)Oc1ccc(Cl)cc1` ?
OUT: inactive

IN: What was the test verdict on `CCCCCCCCCCCCCCCC[N+](C)(C)C` ?
OUT: active

IN: What was the test verdict on `CN[C@@H](C)[C@@H](O)c1ccccc1` ?
OUT: inactive

IN: What was the test verdict on `O=C(O)c1cc2ccccc2c(Cc2c(O)c(C(=O)O)cc3ccccc23)c1O` ?
OUT: inactive

IN: What was the test verdict on `CS(=O)(=O)c1ccc(C2=C(c3ccccc3)C(=O)OC2)cc1` ?
OUT: inactive

IN: What was the test verdict on C[C@]12CC(=O)C3C(CC[C@@H]4C[C@H](O)CC[C@]34C)C1CC[C@]2(O)C(=O)CO (some centres not stated) ?
OUT: inactive

IN: What was the test verdict on `CC(=O)c1c(O)c(C)c(O)c2c1oc1c(C(C)=O)c(O)c(C)c(O)c12` ?
OUT: inactive

IN: What was the test verdict on CO[C@H]1[C@H](O)[C@H](O[C@H]2CC[C@]3(C)C4CC[C@]5(C)C(C6=CC(=O)OC6)CC[C@]5(O)C4CC[C@@H]3C2)O[C@@H](C)[C@@H]1O (some centres not stated) ?
OUT: inactive

IN: What was the test verdict on CC[C@H](/C=C/C(C)C1CCC2C3CCC4=CC(=O)CC[C@]4(C)C3CC[C@]12C)C(C)C (some centres not stated) ?
OUT: inactive

IN: What was the test verdict on CNC(C)[C@H](O)c1ccccc1 (some centres not stated) ?
OUT: inactive

IN: What was the test verdict on `Cc1c(O)c(C(=O)CC(C)C)c2oc3c(C(=O)CC(C)C)c(O)c(C)c(O)c3c2c1O` ?
OUT: inactive

IN: What was the test verdict on `COc1cc2c(cc1OC)C(=O)OC2` ?
OUT: inactive

IN: What was the test verdict on C=Cc1c2[nH]c(c1C)C=c1[nH]c(c(C)c1C=C)=CC1N=C(C=c3[nH]c(c(C)c3CCC(=O)O)=C2)C(CCC(=O)O)=C1C (configuration not stated) ?
OUT: inactive

IN: What was the test verdict on `CCOC(=O)c1c(C)cc(O)c(C)c1O` ?
OUT: inactive

IN: What was the test verdict on CC(CCc1ccccc1)NC(C)C(O)c1ccc(O)cc1 (configuration not stated) ?
OUT: inactive

IN: What was the test verdict on C[C@]12CCC(=O)C=C1CCC1C2CC[C@@]2(C)C1CC[C@@H]2O (some centres not stated) ?
OUT: inactive

IN: What was the test verdict on `COc1cc(NS(=O)(=O)c2ccc(N)cc2)nc(OC)n1` ?
OUT: inactive

IN: What was the test verdict on CC1/C(=N\O)C[C@@H]2C[C@H]1C2(C)C (some centres not stated) ?
OUT: inactive

IN: What was the test verdict on CC(NCCc1ccc(O)cc1)C(O)c1ccc(O)cc1 (configuration not stated) ?
OUT: inactive
